Data provenance: paper PMC2671406

assayed-target: T1, Human (vertebrate) calmodulin (human, UniProt P0DP23 1-149)
T1 construct: also called CaM
assay-procedure: ITC; CaM (0.1 mM) in the cell, CnA-CBD peptide (1 mM) in the syringe, 5 µl injections; +35°C; 10 mM HEPES pH 7.5, 100 mM NaCl, 10 mM CaCl2
conditions: both partners purified
endpoint-label: Kd
Output should be the measured figure followed by the unit it is expressed in.

Q: Requested field: Kd. Item: VIRNKIRAIGKMARVFS (also called CnA-CBD; CnA-CBD peptide; source: bought: GL Biochem (Shanghai, China)) [Peptide corresponding to the CaM binding domain of calcineurin A (residues 395-411)]
A: 0.7 µM
